# tested target: T1, human IL-13 (human, UniProt P35225 25-146, limits assumed)
# T1 construct: The KinExA antigen was detected with an anti-HIS IgG, so it probably carried a HIS tag; also called Interleukin-13; hIL-13
# T1 sequence (P35225 other isoform, or with tags, fused parts or gaps limits assumed): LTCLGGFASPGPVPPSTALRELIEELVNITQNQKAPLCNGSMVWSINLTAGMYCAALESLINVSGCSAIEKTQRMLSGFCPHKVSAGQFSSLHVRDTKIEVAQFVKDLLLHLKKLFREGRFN
# method description: SPR (Biacore 8K+), antibody captured, human IL-13 as analyte, 37 C; less than 5% decay in 5,400 s, KD estimated
pKd: −log10 of the molar value.
quantity kind: pKd

Completed entries (count: 2):
{"columns": ["binder", "pKd"],
 "data": [
  ["AbJ (antibody, human IgG1, kappa, V domains shown) VH: QVTLRESGPALVKPTQTLTLTCTVSGASLSAYSVNWIRQPPGKALEWLAMIWGDRKKVYNSALKSRLTISKDTSKNQVVLTMTNMDPVDTATYYCAGDGYFPYAMDLWGQGSLVTVSS VL: DIVMTQSPDSLSVSLGERATINCRASKSVDSYGHSYMHWYQQKPGQPPKLLIYWASNLESGVPDRFSGSGSGTDFTLTISSLQAEDVAVYYCQQNNEDPRTFGGGTKVEIKR", "> 10.82"],
  ["AbO (antibody, human IgG1, kappa, V domains shown) VH: QVTLRESGPALVKPTQTLTLTCTVSGYSLSAYSVNWIRQPPGKALEWLAMIWGDGKIVYNSALKSRLTISKDTSKNQVVLTMTNMDPVDTATYYCAGDGYFPYAMDVWGQGSLVTVSS VL: DIVMTQSPDSLSVSLGERATINCRASKSVDYYGHSYMHWYQQKPGQPPKLLIYLASNLESGVPDRFSGSGSGTDFTLTISSLQAEDVAVYYCQQNNEDPRTFGGGTKVEIKR", "> 10.82"]
]}

Query binder follows.
Suppose we examine the binder AbN (antibody, human IgG1, kappa, V domains shown) VH: QVTLRESGPALVKPTQTLTLTCTVSGASLSAYSVNWIRQPPGKALEWLAMIWGDGKIVYNSALKSRLTISKDTSKNQVVLTMTNMDPVDTATYYCAGDGYYPYAMDNWGQGSLVTVSS VL: DIVMTQSPDSLSVSLGERATINCRASESVDYYGHSYMHWYQQKPGQPPKLLIYLASNLESGVPDRFSGSGSGTDFTLTISSLQAEDVAVYYCQQNNEDPRTFGGGTKVEIKR ; what pKd value has been reported?
> 10.82

Data origin, for the record: patent US20260116963A1
